Molecular target: c-Src SH2;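 note: peptide library displayed on the E. coli surface as eCPX fusions, selected cells deep-sequenced, score is each peptide's frequency after selection divided by its frequency in the input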
Test: SH2 binding enrichment of the phosphorylated peptide, bacterial display (enrichment ratio); higher = better substrate or ligand; peptides without Tyr show the background
Use 0.8 as the dividing line for SH2 binding enrichment, with the line itself on the label 1 side and lower values as label 0.

Prompt: Check this sequence for SH2 binding enrichment at or above 0.8: YRQNGYIPGSN [PCDHGA1_Y895_V894G]
Completion: label 0

Prompt: Check this sequence for SH2 binding enrichment at or above 0.8: GCLSKYSGVFS [TUBGCP6_Y1624_V1621L]
Completion: label 0

Prompt: Check this sequence for SH2 binding enrichment at or above 0.8: ATDLAYFLVRK [ASL_Y375_YF]
Completion: label 1

Prompt: Check this sequence for SH2 binding enrichment at or above 0.8: CTTIHYNFMRN [TP53_Y234_C238R_YF]
Completion: label 0

Prompt: Check this sequence for SH2 binding enrichment at or above 0.8: KDHRDYKYQPR [SOX9_Y172_P170R]
Completion: label 1

Others:
Prompt: Check this sequence for SH2 binding enrichment at or above 0.8: YDGKDYIALNE [HLA-A_Y147]
Completion: label 0

====

Target: FGFR1 (UniProt P11362)
Sequence (P11362 whole entry, looked up): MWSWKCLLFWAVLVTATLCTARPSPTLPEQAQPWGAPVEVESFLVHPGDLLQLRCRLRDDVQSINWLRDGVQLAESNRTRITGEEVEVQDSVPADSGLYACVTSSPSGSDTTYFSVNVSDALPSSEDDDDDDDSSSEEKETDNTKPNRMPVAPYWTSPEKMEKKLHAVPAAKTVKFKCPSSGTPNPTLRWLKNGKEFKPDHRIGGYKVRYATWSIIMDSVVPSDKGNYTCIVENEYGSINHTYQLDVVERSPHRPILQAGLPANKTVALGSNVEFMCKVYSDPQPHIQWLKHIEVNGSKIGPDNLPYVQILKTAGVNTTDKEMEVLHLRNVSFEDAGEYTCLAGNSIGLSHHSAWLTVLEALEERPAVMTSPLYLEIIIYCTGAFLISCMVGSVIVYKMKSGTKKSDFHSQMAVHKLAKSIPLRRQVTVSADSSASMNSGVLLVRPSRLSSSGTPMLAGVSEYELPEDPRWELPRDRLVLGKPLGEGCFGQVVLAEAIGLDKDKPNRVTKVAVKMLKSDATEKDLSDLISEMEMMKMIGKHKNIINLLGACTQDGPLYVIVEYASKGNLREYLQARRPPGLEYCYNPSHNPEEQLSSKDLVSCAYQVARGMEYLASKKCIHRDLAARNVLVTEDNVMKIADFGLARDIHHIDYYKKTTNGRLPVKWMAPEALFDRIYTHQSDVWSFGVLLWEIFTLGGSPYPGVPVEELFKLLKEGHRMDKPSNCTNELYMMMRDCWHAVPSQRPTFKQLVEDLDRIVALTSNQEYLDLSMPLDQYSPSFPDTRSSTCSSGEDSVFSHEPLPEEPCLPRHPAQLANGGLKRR
Assay: phosphorylation enrichment, bacterial display (enrichment ratio); higher = better substrate or ligand; peptides without Tyr show the background
Below, each of the sequences is paired with its reported phosphorylation enrichment value.
// keep it numeric: no unit symbol after the value

Take a look at these entries with their results.
Prompt: Using the record for RVEDACILTCN [CCT6A_Y229_Y229C] , state its measured phosphorylation enrichment.
Completion: 0.708

Prompt: Using the record for LPSKDYAEVRR [HP_Y272_G276R] , state its measured phosphorylation enrichment.
Completion: 0.712

Prompt: Using the record for MNPPPYSQFLS [FGF23_Y154] , state its measured phosphorylation enrichment.
Completion: 0.508

Prompt: Using the record for LGRGKYSEVFE [CSNK2A1_Y50] , state its measured phosphorylation enrichment.
Completion: 0.685

Please examine the following record next.
Prompt: Using the record for TENAGYFFRIS , state its measured phosphorylation enrichment.
Completion: 0.511

====

Target: Hck (UniProt P08631)
Sequence (P08631 whole entry, looked up): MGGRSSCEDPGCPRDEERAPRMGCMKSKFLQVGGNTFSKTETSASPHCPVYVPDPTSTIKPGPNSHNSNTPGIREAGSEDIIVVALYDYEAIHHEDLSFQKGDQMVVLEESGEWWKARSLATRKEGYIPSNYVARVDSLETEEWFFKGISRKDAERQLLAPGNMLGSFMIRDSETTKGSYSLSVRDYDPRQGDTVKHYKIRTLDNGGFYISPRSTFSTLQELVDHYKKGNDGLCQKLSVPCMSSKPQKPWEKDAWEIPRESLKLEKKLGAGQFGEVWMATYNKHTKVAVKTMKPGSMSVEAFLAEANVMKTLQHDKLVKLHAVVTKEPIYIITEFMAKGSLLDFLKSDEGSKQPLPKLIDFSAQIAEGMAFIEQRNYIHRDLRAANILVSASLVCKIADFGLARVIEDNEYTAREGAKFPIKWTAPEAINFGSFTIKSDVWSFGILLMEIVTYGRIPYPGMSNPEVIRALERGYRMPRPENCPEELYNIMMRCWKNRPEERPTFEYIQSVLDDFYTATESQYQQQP
Experiment: phosphorylation enrichment, bacterial display (enrichment ratio); higher = better substrate or ligand; peptides without Tyr show the background
ASSAY_ENDPOINT: phosphorylation enrichment
// keep it numeric: no unit symbol after the value

Prompt: Using the record for RGVVMYTSKDR [ZG16B_Y136_M133V] , state its measured phosphorylation enrichment.
Completion: 0.677

Others:
Prompt: Using the record for WQQQSYLDSEI [CTNNB1_Y30_G34E] , state its measured phosphorylation enrichment.
Completion: 0.444

Prompt: Using the record for TFGVVYKARNK [CDK2_Y19_YF] , state its measured phosphorylation enrichment.
Completion: 0.39

Prompt: Using the record for DDPRTYQKYGY [OAS1_Y362_R361T] , state its measured phosphorylation enrichment.
Completion: 0.492

Prompt: Using the record for KSLFHHRQYSA [CPS1_Y1491_Y1491H] , state its measured phosphorylation enrichment.
Completion: 0.488

Prompt: Using the record for KGLKVYVNGTL [ADGRD1_Y183_E178K] , state its measured phosphorylation enrichment.
Completion: 0.441

Prompt: Using the record for IGMFSYVMLAS [GGCX_Y301] , state its measured phosphorylation enrichment.
Completion: 0.548

Prompt: Using the record for FDAHNYHPLPV [OAT_Y55_G51D_YF] , state its measured phosphorylation enrichment.
Completion: 1.1

Prompt: Using the record for YFVVEYRNQKP [MUC17_Y4332_D4334N] , state its measured phosphorylation enrichment.
Completion: 0.605

Prompt: Using the record for LERFIYNREEL [HLA-DPB1_Y59_F64L_YF] , state its measured phosphorylation enrichment.
Completion: 1.5

Prompt: Using the record for CLAKMYFSAVD [CP_Y539_YF] , state its measured phosphorylation enrichment.
Completion: 0.527

Prompt: Using the record for PTATSYNPNLA [GABRA1_Y375_T376N] , state its measured phosphorylation enrichment.
Completion: 0.621

Prompt: Using the record for NIQKKYFRAIL [CHD7_Y1217_YF] , state its measured phosphorylation enrichment.
Completion: 0.421

Prompt: Using the record for SISLKYEGRVF [ABL1_Y167_R166K_YF] , state its measured phosphorylation enrichment.
Completion: 0.553

Prompt: Using the record for ISSLDYISKSK [VAV3_Y294_T298S] , state its measured phosphorylation enrichment.
Completion: 0.443

Prompt: Using the record for NTILLYHIMAW [GPR143_Y157_S152N] , state its measured phosphorylation enrichment.
Completion: 1.56

Prompt: Using the record for PQDVTYARLHS [LILRB4_Y412_Q414R] , state its measured phosphorylation enrichment.
Completion: 4.33

Prompt: Using the record for PPAPRYHDSAV [LZTR1_Y119_H121D] , state its measured phosphorylation enrichment.
Completion: 0.684
